- measurement description: Liver microsomal stability assay
- Assay type: in vitro ADME
- assay conditions: liver microsomes, pH 7.4; Human liver microsome
reported endpoint: half-life (h)
Use h as the unit, but write only the number.

[ask] Form field: reported half-life of CN1CCC(COc2cnc(-c3cccc(Cn4nc(-c5cccc(C#N)c5)ccc4=O)c3)nc2)CC1 [Tepotinib, reference compound]
[reply] 30.5

---

- system: c-Met kinase (Homo sapiens, UniProt P08581)
- Sequence (P08581 25-1390): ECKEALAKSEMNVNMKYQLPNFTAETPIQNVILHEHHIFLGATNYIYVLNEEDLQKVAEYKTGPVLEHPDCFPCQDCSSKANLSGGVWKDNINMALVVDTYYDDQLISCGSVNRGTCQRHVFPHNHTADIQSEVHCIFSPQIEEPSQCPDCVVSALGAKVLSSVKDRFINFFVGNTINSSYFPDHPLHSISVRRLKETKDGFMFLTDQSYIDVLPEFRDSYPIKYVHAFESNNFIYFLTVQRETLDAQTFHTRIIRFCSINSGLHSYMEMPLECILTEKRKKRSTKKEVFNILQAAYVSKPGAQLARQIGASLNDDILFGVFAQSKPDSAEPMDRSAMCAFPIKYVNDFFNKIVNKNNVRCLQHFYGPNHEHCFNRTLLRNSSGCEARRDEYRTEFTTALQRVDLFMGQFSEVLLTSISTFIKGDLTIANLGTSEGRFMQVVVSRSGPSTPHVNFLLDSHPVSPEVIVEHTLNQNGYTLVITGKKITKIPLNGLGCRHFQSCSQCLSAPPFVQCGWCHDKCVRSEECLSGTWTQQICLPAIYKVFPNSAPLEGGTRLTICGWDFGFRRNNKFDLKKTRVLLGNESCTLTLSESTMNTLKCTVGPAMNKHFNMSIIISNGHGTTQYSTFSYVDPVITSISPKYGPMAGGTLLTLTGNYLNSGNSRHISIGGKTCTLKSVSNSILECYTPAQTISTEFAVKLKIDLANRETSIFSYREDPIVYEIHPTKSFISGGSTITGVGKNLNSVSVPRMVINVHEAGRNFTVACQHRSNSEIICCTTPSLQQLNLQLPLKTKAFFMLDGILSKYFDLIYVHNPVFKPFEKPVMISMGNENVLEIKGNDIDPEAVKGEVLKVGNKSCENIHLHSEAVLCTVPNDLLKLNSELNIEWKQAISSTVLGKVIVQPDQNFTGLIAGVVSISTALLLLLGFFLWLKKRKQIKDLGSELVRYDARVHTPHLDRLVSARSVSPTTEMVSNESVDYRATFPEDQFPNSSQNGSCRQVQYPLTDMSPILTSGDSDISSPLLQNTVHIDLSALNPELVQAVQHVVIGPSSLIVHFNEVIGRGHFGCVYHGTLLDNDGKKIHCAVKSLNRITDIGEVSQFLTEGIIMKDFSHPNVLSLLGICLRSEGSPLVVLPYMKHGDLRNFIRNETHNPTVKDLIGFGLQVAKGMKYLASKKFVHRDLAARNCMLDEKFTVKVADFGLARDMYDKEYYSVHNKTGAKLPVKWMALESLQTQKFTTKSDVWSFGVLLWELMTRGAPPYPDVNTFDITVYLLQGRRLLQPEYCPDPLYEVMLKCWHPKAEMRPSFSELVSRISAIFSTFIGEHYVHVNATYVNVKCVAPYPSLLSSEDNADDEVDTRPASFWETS
reported endpoint: pIC50
Worth noting: pIC50 values are minus log10 of concentrations stated in mol/L.

[ask] Please provide the recorded pIC50 for [2H][C@@](C)(c1cccc(-c2ncc(OCC3CCN(C)CC3)cn2)c1)n1nc(-c2cccc(C#N)c2)ccc1=O [1D228] , tested on c-Met kinase (Homo sapiens, UniProt P08581).
[reply] 9.01

---

- measurement description: Liver microsomal stability assay
- Type: in vitro ADME
- assay conditions: dog, liver microsomes, pH 7.4; Beagle liver microsome
reported endpoint: half-life (min)
Give a bare numeral; the unit min is implied.

[ask] # half-life lookup, item CN1CCC(COc2cnc(-c3cccc(Cn4nc(-c5cccc(C#N)c5)ccc4=O)c3)nc2)CC1 [Tepotinib, reference compound]
[reply] 62.2

---

- measurement description: Liver microsomal stability assay
- Type: in vitro ADME
- assay conditions: cynomolgus monkey, liver microsomes, pH 7.4; Macaca fascicularis liver microsome
reported endpoint: half-life (h)
A number alone suffices; assume h.

CN1CCC(COc2cnc(-c3cccc(Cn4nc(-c5cccc(C#N)c5)ccc4=O)c3)nc2)CC1 [Tepotinib, reference compound] : 22.5

Would you kindly look at the next entry?
[ask] Consider the molecule [2H][C@@](C)(c1cccc(-c2ncc(OCC3CCN(C)CC3)cn2)c1)n1nc(-c2cccc(C#N)c2)ccc1=O and give its measured half-life.
[reply] 27.6

---

- system: TRKA (Homo sapiens, UniProt P04629)
- Sequence (P04629 33-796): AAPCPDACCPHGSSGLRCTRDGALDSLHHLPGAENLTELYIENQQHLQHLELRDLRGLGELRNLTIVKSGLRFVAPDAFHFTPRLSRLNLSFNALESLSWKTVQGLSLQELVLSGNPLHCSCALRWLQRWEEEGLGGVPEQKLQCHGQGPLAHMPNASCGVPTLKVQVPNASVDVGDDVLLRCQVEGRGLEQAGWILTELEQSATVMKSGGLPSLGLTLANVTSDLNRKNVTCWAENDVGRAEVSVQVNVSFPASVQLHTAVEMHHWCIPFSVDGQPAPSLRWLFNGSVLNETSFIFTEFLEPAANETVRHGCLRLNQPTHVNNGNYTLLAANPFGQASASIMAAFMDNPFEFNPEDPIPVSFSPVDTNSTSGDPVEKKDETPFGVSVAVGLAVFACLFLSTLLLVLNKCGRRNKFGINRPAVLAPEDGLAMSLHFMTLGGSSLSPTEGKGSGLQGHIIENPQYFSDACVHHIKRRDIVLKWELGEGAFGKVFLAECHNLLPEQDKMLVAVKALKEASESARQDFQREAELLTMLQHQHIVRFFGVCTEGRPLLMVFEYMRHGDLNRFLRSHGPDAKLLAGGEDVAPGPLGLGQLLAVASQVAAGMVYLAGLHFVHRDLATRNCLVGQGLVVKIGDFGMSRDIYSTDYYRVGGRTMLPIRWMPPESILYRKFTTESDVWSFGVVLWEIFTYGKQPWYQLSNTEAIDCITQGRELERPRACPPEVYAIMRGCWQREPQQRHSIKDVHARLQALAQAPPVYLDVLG
reported endpoint: IC50 (nM)
Numeric only. Scale: nM

[ask] Please tell me: IC50 of [2H][C@@](C)(c1cccc(-c2ncc(OCC3CCN(C)CC3)cn2)c1)n1nc(-c2cccc(C#N)c2)ccc1=O , system TRKA (Homo sapiens, UniProt P04629)?
[reply] 111

---

- measurement description: Liver microsomal stability assay
- Assay type: in vitro ADME
- assay conditions: mouse, liver microsomes, pH 7.4; CD - 1 mice liver microsome
reported endpoint: half-life

[2H][C@@](C)(c1cccc(-c2ncc(OCC3CCN(C)CC3)cn2)c1)n1nc(-c2cccc(C#N)c2)ccc1=O [1D228] : 102 min

API: the following record is the query input.
[ask] Report half-life for CN1CCC(COc2cnc(-c3cccc(Cn4nc(-c5cccc(C#N)c5)ccc4=O)c3)nc2)CC1 [Tepotinib, reference compound] please.
[reply] 15.1 min

The measurements presented in this section are drawn from paper PMC10636171.
